- Organism: Bos taurus
- method-notes: Inhibition of calf brain tubulin polymerization by turbidimetric analysis
Give measured log10 ED50 for each item. Keep answers brief.
Hi team, quick reminder: these entries are log10 of ED50 (µg/mL).

Enquiry: I am curious: what log10 ED50 value has been reported for `COc1cc2c(c(OC)c1OC)-c1ccc(OC)c(=O)cc1[C@@H](NC(C)=O)CC2` ?
Return: 0.87

Enquiry: Next record, please: `COc1cc2c(c(OC)c1OC)-c1cc3c(cc1C(=O)[C@H]1COC(=O)[C@@H]1C2)OCO3`
Return: 1.83

Enquiry: Here is the next compound: C/C=C(/C)C(=O)O[C@@H]1c2cc3c(cc2-c2c(cc(OC)c(OC)c2OC)C[C@H]2C(=O)OC[C@H]12)OCO3 [EPISTEGANANGIN]
Return: 1.89

Enquiry: Next record, please: COc1cc2c(c(OC)c1OC)-c1cc3c(cc1[C@@H](OC(C)=O)C1COC(=O)[C@H]1C2)OCO3 (stereo not given in full)
Return: 0.23

Enquiry: What do we get for `C/C=C(/C)C(=O)O[C@H]1c2cc3c(cc2-c2c(cc(OC)c(OC)c2OC)C[C@H]2C(=O)OC[C@@H]21)OCO3` ?
Return: 1.58
